Hi there, I'd appreciate the recorded clearance for every entry that follows.
Assay: Clearance in Wistar rat at 1 mg/kg, iv
Format: ADME, organism-based
Parameters: dose 1 mg/kg, route intravenous
Details: in vivo
Reply with just the number (in mL/min/kg).

Qu. Endpoint output: clearance of CCN(Cc1cc(F)ccc1-c1cn(CC(=O)O)c2ccccc12)C(=O)C1CC1 . Value?
Ans. 76

Qu. Endpoint output: clearance of CCN(Cc1cc(C(F)(F)F)ccc1-c1cn(CC(=O)O)c2ccc(C)nc12)C(=O)C1CC1 . Value?
Ans. 134

Qu. Endpoint output: clearance of CCN(Cc1cc(C(F)(F)F)ccc1-n1cc(CC(=O)O)c2ccc(C)nc21)C(=O)C1CC1 . Value?
Ans. 14

Qu. Endpoint output: clearance of CCN(Cc1cc(C(F)(F)F)ccc1-c1cc(CC(=O)O)n2cccnc12)C(=O)C1CC1 . Value?
Ans. 26

Qu. Endpoint output: clearance of CCN(Cc1ccccc1-n1cc(CC(=O)O)c2ccc(C(F)(F)F)cc21)C(=O)C1CC1 . Value?
Ans. 16
